FYI, the data here is from paper PMC7559125.

Biological target: neuraminidase of A/Yokohama/59/2016 (wild-type) (Influenza A virus, UniProt A0A0X9QTS2)
Endpoint name: pIC50
In plain terms, pIC50 is the concentration in mol/L turned into minus its base-10 logarithm.

Dear colleague, please send me the reported pIC50 for CCC(CC)[C@H](NC(C)=O)[C@@H]1[C@H](O)[C@@H](C(=O)O)C[C@H]1N=C(N)N.O.O.O [Peramivir, peramivir trihydrate] when you can.
10.10

====

Endpoint name: IC50 (pM)
Write the answer as a number in pM, unit excluded.

For neuraminidase of A/Sakai/23/2013 (wild-type) (Influenza A virus, UniProt W8DXJ8), give IC50 of the listed compound: CCC(CC)[C@H](NC(C)=O)[C@@H]1[C@H](O)[C@@H](C(=O)O)C[C@H]1N=C(N)N.O.O.O [Peramivir, peramivir trihydrate]
10

====

Endpoint name: IC50 (pM)
Write the answer as a number in pM, unit excluded.

For neuraminidase of A/Yokohama/40/2016 (wild-type) (Influenza A virus, UniProt A0A0X9QTS2), give IC50 of the listed compound: CCC(CC)[C@H](NC(C)=O)[C@@H]1[C@H](O)[C@@H](C(=O)O)C[C@H]1N=C(N)N.O.O.O [Peramivir, peramivir trihydrate]
70
